test system: TNK2;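 also: kd values determined as follow-up on hits from a single-replicate KINOMEscan panel screen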
measured.property: pKd
Please treat pKd as minus the base-10 logarithm of the molar concentration.

Lab note: need pKd with TNK2 for entry Cc1ccc(C(=O)Nc2ccc(Nc3ccnc4cc(-c5ccccn5)ccc34)cc2O)cc1.Cl , please look it up.
6.92

---

system: STK36; settings: concentration: 1 μM, replicates: in singlicate; n = 1;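 also: KINOMEscan kinase panel screen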
Criterion: %Inh meeting or surpassing 1%. Met: 1. Not met: -1.

Solved entries:
compound	class.label
Cl.Oc1ccc(-c2nc(-c3ccccc3)[nH]c2-c2ccncc2)cc1	-1
CSc1nn2c(=O)cc(N3CCOCC3)nc2n1Cc1cccc(C(F)(F)F)c1C	-1
Cc1ccc(NC(=O)Nc2cc(C(C)(C)C)nn2-c2ccccc2)cc1	-1

Please tell me: is the compound Cc1c(Cn2ccn3c(=O)cc(N4CCOCC4)nc23)cccc1C(F)(F)F at or over 1% in terms of %Inh?
1
